Test system: HCC 2998
assay.comment: NCI tumour cell line growth inhibition, 48 h
Calls of active or inactive are those of the source. No stated cut-off is given here; in the data, active = GI50 up to about 1.1 µM and inactive = higher.
measured.endpoint: GI50

Q: Check the records and state GI50 for O=C1NC(O)CCN1C1OC(CO)C(O)C1O (stereo not given)
Result: > 250 µM (inactive)

Q: Check the records and state GI50 for CC1CC(C[N+](=O)[O-])CC2(C1)OCCO2 (stereo not given)
Result: > 100 µM (inactive)

Q: Check the records and state GI50 for C=C1C(=O)OC2C1C(OC(=O)/C(=C/C)COC(C)=O)CC1(CO1)C1C(OC(=O)/C(=C/C)CO)C=C(C)C21 (stereo not given)
Result: 1.92 µM (inactive)

Q: Check the records and state GI50 for CC[C@]1(O)C(=O)OCc2c1cc1n(c2=O)Cc2cc3c(N)cccc3nc2-1
Result: > 100 µM (inactive)

Q: Check the records and state GI50 for CC(=N\N=C\c1ccccn1)/C(C)=N/N=C/c1ccccn1
Result: > 100 µM (inactive)

###

System: DU-145
assay.comment: NCI tumour cell line growth inhibition, 48 h
Calls of active or inactive are those of the source. Cut-off read from the data, not from the text of the source: active = GI50 up to about 1.1 µM and inactive = higher.
The categories you may choose from are Y (active), N (inactive)

Q: Which outcome did this test record for the compound CCN(CC)CC(O)CNc1ccc(NCC2CO2)c2c1C(=O)c1ccccc1C2=O (configuration not stated) ?
Result: N

Q: Which outcome did this test record for the compound O=C(O)c1c(Br)c(Br)c(Br)c(Br)c1C1c2ccc(O)cc2Oc2cc(O)ccc21 ?
Result: N

Q: Which outcome did this test record for the compound FC(F)(F)c1ccc2nc(Sc3ccccn3)cnc2c1 ?
Result: N

Q: Which outcome did this test record for the compound COc1cc(C2C(Cl)C(=O)N2c2ccc(Br)cc2)cc(I)c1O (configuration not stated) ?
Result: N

Q: Which outcome did this test record for the compound O=C(c1ccco1)N1CCCN(C(=O)c2ccco2)C1=S ?
Result: N

Q: Which outcome did this test record for the compound OC(C1CO1)C(O)C1CO1 (configuration not stated) ?
Result: N

Q: Which outcome did this test record for the compound O=[N+]([O-])c1cccc2nc3ccccc3c(NCCCCCNc3c4ccccc4nc4cccc([N+](=O)[O-])c34)c12 ?
Result: Y

Q: Which outcome did this test record for the compound CC1CCC2C(C)C3C(CC4C5CC=C6CC(OC7OC(CO)C(O)C(OC8OC(CO)C(O)C(O)C8O)C7OC7OC(C)C(O)C(O)C7O)CCC6(C)C5CCC43C)N2C1 (configuration not stated) ?
Result: N

Q: Which outcome did this test record for the compound c1ccc(COC2NCCN2Cc2ccccc2)cc1 (configuration not stated) ?
Result: N

Q: Which outcome did this test record for the compound Cc1nc2c(Br)cc(Br)cc2c(=O)n1-c1ccccc1N ?
Result: N

Q: Which outcome did this test record for the compound Cn1cc2c(=O)n3ncn(-c4ccc(Br)cc4)c3nc2n1 ?
Result: N

Q: Which outcome did this test record for the compound COC(=O)c1ccccc1C1CN=NC12Cc1cc(C)cc(C)c1C2=O (configuration not stated) ?
Result: N

Q: Which outcome did this test record for the compound CN1C(=O)[C@H](c2c[nH]c3ccccc23)[C@H](c2c[nH]c3ccccc23)C1=O ?
Result: N

Q: Which outcome did this test record for the compound COc1cccc2c1C(=O)C=CC2=O ?
Result: N

Q: Which outcome did this test record for the compound CCN(CC)CC1CCCCN1CC(=O)N1c2ccccc2NC(=O)c2ccccc21 (configuration not stated) ?
Result: N

Q: Which outcome did this test record for the compound COc1c(-c2ccccc2)oc2c(CP(=O)(OC)OC)cccc2c1=O ?
Result: N

Q: Which outcome did this test record for the compound CN1C/C(=C\c2cccs2)C2=NN(c3ccccc3)C(c3cccs3)C2C1 (configuration not stated) ?
Result: N

Q: Which outcome did this test record for the compound O=C(CC1(O)C(=O)Nc2c(Cl)ccc(Cl)c21)c1ccco1 (configuration not stated) ?
Result: N

Q: Which outcome did this test record for the compound Nc1ccc2ccc(N3CCNCC3)nc2n1 ?
Result: N

Q: Which outcome did this test record for the compound O=C(c1ccc(Cl)cc1)N(C(=S)OCCOc1ccccc1)c1ccccc1 ?
Result: N

Q: Which outcome did this test record for the compound COc1ccc(C=C2C(=O)NC(=S)NC2=O)c2ccccc12 ?
Result: N

Q: Which outcome did this test record for the compound O=c1c2ncn(COCCCl)c2n(-c2ccccc2)c(=S)n1-c1ccccc1 ?
Result: N

###

Tested on: SN12C
assay.comment: NCI tumour cell line growth inhibition, 48 h
Calls of active or inactive are those of the source. No stated cut-off is given here; in the data, active = GI50 up to about 1.1 µM and inactive = higher.
measured.endpoint: GI50

Q: Check the records and state GI50 for CN1C/C(=C\c2cccs2)C2=NN(c3ccccc3)C(c3cccs3)C2C1 (stereo not given)
Result: 4.39 µM (inactive)

Q: Check the records and state GI50 for Cc1n[nH]c(CC#N)n1
Result: > 100 µM (inactive)

Q: Check the records and state GI50 for Cn1c2ccccc2c2c(-c3ccccc3)[n+]3ccccc3nc21
Result: 25.8 µM (inactive)

Q: Check the records and state GI50 for N#CC(C/C=C/c1ccccc1)NNC(=O)c1c(Cl)c(Cl)c(Cl)c(Cl)c1-c1nc2cc(C(=O)c3ccccc3)ccc2[nH]1 (stereo not given)
Result: 14.8 µM (inactive)

Q: Check the records and state GI50 for O=C1[C@@H]2C(c3ccccc3Br)=NO[C@@H]2C(=O)N1c1ccc(Cc2ccc(N3C(=O)[C@H]4C(c5ccccc5Br)=NO[C@H]4C3=O)cc2)cc1
Result: > 100 µM (inactive)

Q: Check the records and state GI50 for O=C(c1ccc(Cl)cc1)N(C(=S)N1CCN(c2ccccc2)CC1)C1CCCCC1
Result: > 100 µM (inactive)

Q: Check the records and state GI50 for O=C1/C(=C/c2cccc(F)c2)CCCc2ccccc21
Result: 17.9 µM (inactive)

Q: Check the records and state GI50 for NC(=O)NC(=O)c1cccc(C(=O)NC(N)=O)n1
Result: > 100 µM (inactive)

Q: Check the records and state GI50 for CCN(CC)c1ccc(/N=N/c2ccc(-c3nc4ccc[n+](C)c4o3)cc2)cc1
Result: 15.5 µM (inactive)

Q: Check the records and state GI50 for CN(CC(=O)O)c1ncc2c(n1)CCCC2
Result: > 100 µM (inactive)

###

Test system: HOP-62
assay.comment: NCI tumour cell line growth inhibition, 48 h
Active and inactive are the calls of the source. Rule as the data show it: active = GI50 up to about 1.1 µM and inactive = higher.
The categories you may choose from are 1 for active, -1 for inactive

Q: Which outcome did this test record for the compound Cc1ccc2c(=O)c(-c3nnc(NC4CCCCC4)s3)c[nH]c2n1 ?
Result: -1

Q: Which outcome did this test record for the compound COc1ccc2c(c1)O[C@@H]1c3ccc(OC)cc3OC[C@H]21 ?
Result: -1

Q: Which outcome did this test record for the compound COC(=O)NCCc1n[nH]c2c1C(=O)C=C(OC)C2=O ?
Result: -1

Q: Which outcome did this test record for the compound COC(=O)[C@@H](Cc1ccccc1)NNC(=O)OC(C)(C)C ?
Result: -1

Q: Which outcome did this test record for the compound Cc1ccc(/N=N/C(C(=O)c2ccccc2)C(=O)c2ccccc2)cc1 ?
Result: -1

Q: Which outcome did this test record for the compound CC(C)/C(Cl)=N\OC(=O)Nc1ccc(S(N)(=O)=O)cc1 ?
Result: -1

Q: Which outcome did this test record for the compound OC(C1CO1)C(O)C1CO1 (centres undefined) ?
Result: -1

Q: Which outcome did this test record for the compound COc1ccc2nc(NC(=O)C(=O)CC(=O)c3ccc([N+](=O)[O-])cc3)sc2c1 ?
Result: -1

Q: Which outcome did this test record for the compound COc1ccc(C(=O)NNC(=O)c2nsc3ccccc23)cc1 ?
Result: -1

Q: Which outcome did this test record for the compound Cc1cc(C)c(C(=O)C(C)C(c2ccccc2)c2ccc(Cl)cc2)c(C)c1 (centres undefined) ?
Result: -1

Q: Which outcome did this test record for the compound CCOC(=O)C(=CNC(=S)Nc1c(CC)cccc1CC)C(=O)OCC ?
Result: -1

Q: Which outcome did this test record for the compound CCO[C@@]1(COCc2ccccc2)OC(=O)C[C@@H]1N1C(=O)OC[C@@H]1c1ccccc1 ?
Result: -1

Q: Which outcome did this test record for the compound CCOC(=O)c1c(-c2ccc(OC)cc2)c(C#N)c(=S)n(C2OC(COC(C)=O)C(OC(C)=O)C(OC(C)=O)C2OC(C)=O)c1-c1ccccc1 (centres undefined) ?
Result: -1

Q: Which outcome did this test record for the compound C[C@H]1S[C@@H](c2ccc(Cl)cc2Cl)N(NC(=O)c2ccncc2)C1=O ?
Result: -1

Q: Which outcome did this test record for the compound c1ccc(C/C(=N\Nc2nc3ccccc3[nH]2)c2ccccn2)cc1 ?
Result: 1

Q: Which outcome did this test record for the compound COc1ccc(C(=O)C(c2ccc(OCc3ccccc3)cc2)c2ccc(OCc3ccccc3)cc2)cc1 ?
Result: -1

Q: Which outcome did this test record for the compound Cc1cc(C)c([O-])c(-[n+]2c(-c3ccccc3)cc(-c3ccccc3)cc2-c2ccccc2)c1 ?
Result: -1

Q: Which outcome did this test record for the compound CC(C)(C)C(=O)C(Cc1ccccc1)C(=O)C(C)(C)C ?
Result: -1

Q: Which outcome did this test record for the compound NNC(=O)CC(=O)Nc1ccccc1Cl ?
Result: -1

Each recorded value in this set is attributed to ChEMBL document CHEMBL1201862.
